Entries and their activity (mortality in %)
System: Ctenocephalides felis
Assay: Ctenocephalides felis test (CTECFE), blood feeding
Format: in vivo
Conditions: 100 ppm in cattle blood; adult unfed fleas, after 2 days
observed-property: activity (mortality in %)

compound="C[C@H](NC(=O)C1CC1)c1ccc(N2CCC(c3cc(Cl)c(Cl)c(Cl)c3)(C(F)(F)F)C2)cc1 (stereo partly drawn)" observed_property="activity (mortality in %)" experimental_value=95%
compound="CCC(=O)NC(C)c1ccc(N2CCC(c3cc(Cl)cc(Cl)c3)(C(F)(F)F)C2)cc1 (racemic)" observed_property="activity (mortality in %)" experimental_value=95%
compound="CCC(=O)N[C@H](C)c1ccc(N2CCC(c3cc(C(F)(F)F)cc(C(F)(F)F)c3)(C(F)(F)F)C2)cc1 (stereo partly drawn)" observed_property="activity (mortality in %)" experimental_value=90%
compound="CC(NC(=O)CC1CC1)c1ccc(N2CCC(c3cc(Cl)c(Cl)c(Cl)c3)(C(F)(F)F)C2)cc1 (racemic)" observed_property="activity (mortality in %)" experimental_value=95%
compound="CCC(=O)N[C@H](C)c1ccc(N2CCC(c3cc(Cl)c(Cl)c(Cl)c3)(C(F)(F)F)C2)cc1 (stereo partly drawn)" observed_property="activity (mortality in %)" experimental_value=80%
compound="COCCC(=O)NC(C)c1ccc(N2CCC(c3cc(Cl)c(Cl)c(Cl)c3)(C(F)(F)F)C2)cc1 (racemic)" observed_property="activity (mortality in %)" experimental_value=90%
